Source: PubChem BioAssay (NCI)

- assayOverview: NCI Yeast Anticancer Drug Screen. Data for the sgs1 mgt1 strain (AID 161);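 note: 0% = growth of cultures given vehicle only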
- assaySetup: S. cerevisiae sgs1 mgt1 strain, at 50.0 µM (retest, dose inferred, filed as 5.0), stronger effect = higher value
Compounds without any hit were thinned out: in the full panel of roughly 79,000, 15% have a hit.
metric: growth inhibition (%)
State just the number; it will be interpreted in %.

>  <chemicalSmiles>
COc1ccc2c(c1)CCc1c(-c3noc4c3CCc3cc(OC)ccc3-4)noc1-2

>  <quantitativeReadout>
-2

$$$$
>  <chemicalSmiles>
CN(C)N=Nc1ccc(-c2ccccc2)cc1

>  <quantitativeReadout>
60

$$$$
>  <chemicalSmiles>
O=[N+]([O-])c1c(C=Nc2ccccc2)oc(-c2c(O)ccc3ccccc23)c1-c1c(O)ccc2ccccc12

>  <quantitativeReadout>
-4

$$$$
>  <chemicalSmiles>
CC(C)C(OC(=O)c1ccc(NCC2=CC(=O)C=CC2=O)cc1)C(C)C

>  <quantitativeReadout>
53

$$$$

The value of growth inhibition measured for the compound `Cc1cc(C)c(S(=O)(=O)n2ccnc2)c(C)c1` turned out to be -4

====

- assayOverview: NCI Yeast Anticancer Drug Screen. Data for the rad50 strain (AID 155);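 note: 0% = growth of vehicle-only cultures of the same strain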
- assaySetup: S. cerevisiae rad50 strain growth inhibition; at 50.0 µM (retest, dose inferred, filed as 5.0); stronger effect = higher value
Compounds without any hit were thinned out: in the full panel of roughly 79,000, 15% have a hit.
growth inhibition of 90% or higher: Yes. Under 90%: No.

Before answering, review these 3 worked examples.
>  <molecule>
O=C(/C(O)=C(\O)C(=O)N(C1CCCCC1)C1CCCCC1)N(C1CCCCC1)C1CCCCC1

>  <className>
Yes

$$$$
>  <molecule>
O=C1CSC2(CCN(CCCN3c4ccccc4Sc4ccc(Cl)cc43)CC2)N1

>  <className>
Yes

$$$$
>  <molecule>
COc1ccc2c(C)cc(N/N=C(\C)c3ccccn3)nc2c1

>  <className>
No

$$$$

query: Threshold query (growth inhibition >= 90%) on `Nc1ccc(C(=O)Nc2ccc(C(=O)Nc3ccc(/C=C/c4ccc(NC(=O)c5ccc(N)cc5)cc4S(=O)(=O)O)c(S(=O)(=O)O)c3)cc2)cc1`
result: No

query: Could you verify whether the entry `O=C(CC(O)(CC(=O)OCc1ccccc1)C(=O)OCc1ccccc1)OCc1ccccc1` shows growth inhibition of no less than 90%?
result: No

query: Quick check: does OC(CCN1CCOCC1)c1ccc(Sc2ccccc2)cc1 (centres undefined) have growth inhibition greater than or equal to 90%?
result: No

query: Hello, I need to know if Cc1ccc(C2COc3cc(O)c(O)cc3C2)cc1 (centres undefined) has measured growth inhibition not below 90%. Thanks!
result: Yes

query: Decide: growth inhibition of O=C(O)/C=C/CCC1SCC2NC(=O)NC21 (centres undefined) >= 90%?
result: Yes

====

The following compounds are shown together with reported growth inhibition values.
- assayOverview: NCI Yeast Anticancer Drug Screen. Data for the mec2-1 strain (AID 157)
- assaySetup: S. cerevisiae mec2-1 strain, at 50.0 µM (retest, dose inferred, filed as 5.0), stronger effect = higher value
About 79,000 compounds went through this panel and 15% of them were active in at least one assay; those are over-represented in the sample as a whole.
Field: numeric (%). Do not append units.

Previously resolved entries follow.
>  <compound>
CC(C)=CC[P+](CCCCCC[P+](CC=C(C)C)(c1ccccc1)c1ccccc1)(c1ccccc1)c1ccccc1

>  <measurementUnit>
%

>  <growth inhibition>
9

$$$$
>  <compound>
COc1cccc(/C=N/N(C)C)c1O

>  <measurementUnit>
%

>  <growth inhibition>
-17

$$$$
>  <compound>
O=C(N/C(=C\c1ccc(Cl)cc1)c1nc2ccccc2[nH]1)c1ccccc1

>  <measurementUnit>
%

>  <growth inhibition>
98

$$$$
>  <compound>
Cc1cc(Cl)n2c(nc3ccccc32)c1C#N

>  <measurementUnit>
%

>  <growth inhibition>
97

$$$$

Entry CCCCCOC(=O)C(C)SC#N (stereo not drawn) — recorded growth inhibition = 54

Record `NC(=S)N/N=C/c1cn(CCCl)c2ccccc12` , field growth inhibition: 49

Lookup result for `O=c1[nH]c2cc(Cl)ccc2nc1/C=C(\O)c1ccc(N2CCN(c3ccc(/C(O)=C/c4nc5ccc(Cl)cc5[nH]c4=O)cc3)CC2)cc1` ; measured growth inhibition: 19

Form field growth inhibition, entry CN1CCCC1c1cccc(Br)c1 (stereo not drawn) : 26

Measured growth inhibition, `Nc1cccc2c1C(=O)c1ccc(Cl)cc1C2=O` : 34

For record `O=C(Nc1ccc(/C=C/c2ccc(NC(=O)c3cc(S(=O)(=O)O)c4cccnc4c3O)cc2S(=O)(=O)O)c(S(=O)(=O)O)c1)c1cc(S(=O)(=O)O)c2cccnc2c1O` the listed growth inhibition is 97

Lab book: growth inhibition of `O=P1(Cc2ccccc2)c2ccccc2-c2ccccc21` noted as 99

The value of growth inhibition measured for the compound `Cc1ccc(N2C(=O)C(Cl)=C(Cl)C2=O)cc1` turned out to be 100

Quick note, growth inhibition for `Nc1ccc(Oc2ccc(-c3ccccc3)cc2)c(Cl)c1` landed at 98

Consider `CN(C)c1ccc(/C=C2/Oc3ccc(Cl)cc3C2=O)cc1` . Its measured growth inhibition is 98

compound `CCOC(=O)Cc1csc(/C=C/c2ccc(OC)c(OC)c2)n1` , growth inhibition observed: 20

# compound `O=C(c1ccc(Cl)cc1)c1ccc(OCCCOc2ccc(C(=O)c3ccc(Cl)cc3)cc2)cc1` ; its growth inhibition = 2

Entry CC1CCCN(CC(O)CN2CCCc3ccccc32)C1 (stereo not drawn) ; growth inhibition = 17

Short answer for `CCC(=O)OC1=C(Cl)C(=O)c2ccccc2C1=O` : growth inhibition was 99

What the record says about O=C1C(=O)C(Cc2ccccc2)(c2ccccc2)C(=O)N1c1ccccc1 (stereo not drawn) : growth inhibition is 59

For this compound ( O=C1Nc2ccccc2C(=O)C1(Cc1ccccc1)C(=O)c1ccccc1 (stereo not drawn) ), measured growth inhibition is -9

Looking up `CCOC(=O)/C(=C\c1ccc(Br)cc1)C(C)=O` , I see its growth inhibition listed as 99

// recorded growth inhibition for `Oc1c(Cl)cccc1-c1ccccc1` : 0

Measured growth inhibition of `Nc1ccc2[nH]c3ccccc3c2c1` : 1

====

- assayOverview: NCI Yeast Anticancer Drug Screen. Data for the bub3 strain (AID 167)
- assaySetup: S. cerevisiae bub3 mutant strain, at 5.0 µM (retest, dose inferred, filed as 0.5)
This is part of a sample that, as a whole, favours compounds with a hit. Of some 79,000 tested, about 15% had one in any assay. Activity calls are given as the source filed them. Cut-off read from the data, not from the text of the source: active = growth inhibition above about 70%; inactive = the rest. Where a SMILES comes first, the peptide text is derived from it. The star is where a group is joined. Trt = c1ccc(C(c2ccccc2)(c2ccccc2)*)cc1; Cbz = O=C(OCc1ccccc1)*
Select the matching outcome among active, inactive

>  <compound>
S=c1sc2c(s1)SCCOCCOCCOCCS2

>  <className>
inactive

$$$$
>  <compound>
O=C1C=C(c2ccccc2)O/C1=C\C(=O)c1ccc(Cl)cc1

>  <className>
inactive

$$$$
>  <compound>
CCOP(=O)(OCC)C(=C1C=C(C(C)(C)C)C(=O)C(C(C)(C)C)=C1)P(=O)(OCC)OCC

>  <className>
inactive

$$$$

query: Which outcome did this test record for the compound `C1=CC2OC1c1cc3ccccc3cc12` ?
result: inactive

query: What outcome does the record of this test show for COc1ccc2cc(C(=O)CCCC(C)C(=O)O)ccc2c1 (stereo unspecified) ?
result: inactive

query: What outcome does the record of this test show for `Cc1cc(C(=O)c2ccccc2)ccc1O` ?
result: inactive

query: Could you check what this test reported for `C/C(=N\NC(=S)NC(C)(C)C)c1ccccn1` ?
result: inactive

query: # lookup: test call for CCOC(=O)CCC(NC(=O)C(CSC(c1ccccc1)(c1ccccc1)c1ccccc1)NC(=O)OCc1ccccc1)C(=O)NC(CCC(=O)OCC)C(=O)NC(CCC(=O)OCC)C(=O)NC(CCC(=O)OCC)C(=O)NC(CSC(c1ccccc1)(c1ccccc1)c1ccccc1)C(=O)OC (stereo unspecified) (Cbz-C(Trt)E(OEt)E(OEt)E(OEt)E(OEt)C(Trt)-OMe; configuration not given here)
result: inactive

====

- assayOverview: NCI Yeast Anticancer Drug Screen. Data for the cln2 rad14 strain (AID 165);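 note: 0% = growth equal to vehicle treated cultures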
- assaySetup: S. cerevisiae cln2 rad14 strain, at 5.0 µM (retest, dose inferred, filed as 0.5)
- Protocol: Growth inhibition of yeast strains with defined genetic alterations is measured as a screen for potential anti-cancer activity. Selected strains with alterations in DNA damage repair or cell cycle control were exposed to compounds and growth inhibition was measured relative to vehicle treated controls. The strain used in this assay is cln2 rad14
Compounds without any hit were thinned out: in the full panel of roughly 79,000, 15% have a hit. Activity calls are given as the source filed them. Rule as the data show it: active = growth inhibition above about 70%; inactive = the rest.
Output constraint: value belongs to active, inactive

>  <molecule>
Cc1ccc2[nH]c3cc4ccncc4cc3c2c1

>  <className>
inactive

$$$$
>  <molecule>
CCN(CC)C(=S)N/N=C(/c1ccccc1)c1ccccn1

>  <className>
active

$$$$
>  <molecule>
COc1ccc(C)c2nc3ccccc3nc12

>  <className>
inactive

$$$$
>  <molecule>
CCOC(=O)CN1CCCC(C(=O)CC2(O)C3(Cl)C4(Cl)C5(Cl)C(Cl)(Cl)C6(Cl)C4(Cl)C2(Cl)C6(Cl)C53Cl)C1 (configuration not stated)

>  <className>
inactive

$$$$
>  <molecule>
CC1(C)NNC(=S)NN1

>  <className>
inactive

$$$$
>  <molecule>
Cc1ccc(O)c(-c2cscn2)c1

>  <className>
inactive

$$$$
>  <molecule>
CC(=O)C(C(=O)CCSCCO)C(SCCO)c1ccc(Cl)c(Cl)c1 (configuration not stated)

>  <className>
inactive

$$$$
>  <molecule>
CC(=O)NC1=C(Sc2ccc(C)cc2)C(=O)c2ccccc2C1=O

>  <className>
inactive

$$$$
>  <molecule>
C[n+]1c(/C=C/c2ccc(Cl)cc2)sc2ccccc21

>  <className>
inactive

$$$$
>  <molecule>
CCOC(=O)c1c(Cl)nnc(-c2ccccc2)c1-c1ccccc1

>  <className>
inactive

$$$$

query: State the result this test recorded for CCOC(=O)C1SC(=Nc2ccc(Cl)cc2C)N=C1C (configuration not stated) .
result: inactive

query: Hello, I am checking results. What call was entered for `O=[N+]([O-])c1ccc2nc(CCl)[nH]c2c1` ?
result: inactive
